Test system: Streptococcus pyogenes
Test: Antimicrobial activity against strong ciprofloxacin-resistant Streptococcus pyogenes by agar dilution method
Format: functional
Mark t only for MIC values smaller than 20 µg/mL; exact matches and larger values are f.

Strictly below 20 µg/mL: is that where MIC of Cc1c(F)c(N2CCNC(C)C2)cc2c1c(=O)c(C(=O)O)cn2C1CC1 (configuration not stated) sits? t

Strictly below 20 µg/mL: is that where MIC of CC1COc2c(N3CCN(C)CC3)c(F)cc3c(=O)c(C(=O)O)cn1c23 (configuration not stated) sits? f

Strictly below 20 µg/mL: is that where MIC of COc1c(N2C[C@@H]3CCCN[C@@H]3C2)c(F)cc2c(=O)c(C(=O)O)cn(C3CC3)c12 sits? t

Strictly below 20 µg/mL: is that where MIC of CCn1cc(C(=O)O)c(=O)c2cc(F)c(N3CCNCC3)cc21 sits? f

Strictly below 20 µg/mL: is that where MIC of CO/N=C1\CN(c2nc3c(cc2F)c(=O)c(C(=O)O)cn3C2CC2)CC1CN (configuration not stated) sits? t

Strictly below 20 µg/mL: is that where MIC of O=C(O)c1cn(C2CC2)c2cc(N3CCNCC3)c(F)cc2c1=O sits? f

Strictly below 20 µg/mL: is that where MIC of C[C@H]1COc2c(N3CCN(C)CC3)c(F)cc3c(=O)c(C(=O)O)cn1c23.C[C@H]1COc2c(N3CCN(C)CC3)c(F)cc3c(=O)c(C(=O)O)cn1c23.O sits? f

----------
Tested on: Streptococcus pyogenes
Assay: Antimicrobial activity against ciprofloxacin-susceptible Streptococcus pyogenes harboring Asp91/Asn mutation in parC gene by agar dilution method
Format: functional
measured-property: MIC90 (µg/mL)
Number in µg/mL, nothing else.

Value lookup for MIC90; key = C[C@H]1COc2c(N3CCN(C)CC3)c(F)cc3c(=O)c(C(=O)O)cn1c23.C[C@H]1COc2c(N3CCN(C)CC3)c(F)cc3c(=O)c(C(=O)O)cn1c23.O 1

Value lookup for MIC90; key = CC1COc2c(N3CCN(C)CC3)c(F)cc3c(=O)c(C(=O)O)cn1c23 (configuration not stated) 2

Value lookup for MIC90; key = O=C(O)c1cn(C2CC2)c2cc(N3CCNCC3)c(F)cc2c1=O 1

Value lookup for MIC90; key = Cc1c(F)c(N2CCNC(C)C2)cc2c1c(=O)c(C(=O)O)cn2C1CC1 (configuration not stated) 1

Value lookup for MIC90; key = CCn1cc(C(=O)O)c(=O)c2cc(F)c(N3CCNCC3)cc21 8
